Target: Amine oxidase [copper-containing] 3 (Homo sapiens) (UniProt Q16853)
Sequence (Q16853 whole entry): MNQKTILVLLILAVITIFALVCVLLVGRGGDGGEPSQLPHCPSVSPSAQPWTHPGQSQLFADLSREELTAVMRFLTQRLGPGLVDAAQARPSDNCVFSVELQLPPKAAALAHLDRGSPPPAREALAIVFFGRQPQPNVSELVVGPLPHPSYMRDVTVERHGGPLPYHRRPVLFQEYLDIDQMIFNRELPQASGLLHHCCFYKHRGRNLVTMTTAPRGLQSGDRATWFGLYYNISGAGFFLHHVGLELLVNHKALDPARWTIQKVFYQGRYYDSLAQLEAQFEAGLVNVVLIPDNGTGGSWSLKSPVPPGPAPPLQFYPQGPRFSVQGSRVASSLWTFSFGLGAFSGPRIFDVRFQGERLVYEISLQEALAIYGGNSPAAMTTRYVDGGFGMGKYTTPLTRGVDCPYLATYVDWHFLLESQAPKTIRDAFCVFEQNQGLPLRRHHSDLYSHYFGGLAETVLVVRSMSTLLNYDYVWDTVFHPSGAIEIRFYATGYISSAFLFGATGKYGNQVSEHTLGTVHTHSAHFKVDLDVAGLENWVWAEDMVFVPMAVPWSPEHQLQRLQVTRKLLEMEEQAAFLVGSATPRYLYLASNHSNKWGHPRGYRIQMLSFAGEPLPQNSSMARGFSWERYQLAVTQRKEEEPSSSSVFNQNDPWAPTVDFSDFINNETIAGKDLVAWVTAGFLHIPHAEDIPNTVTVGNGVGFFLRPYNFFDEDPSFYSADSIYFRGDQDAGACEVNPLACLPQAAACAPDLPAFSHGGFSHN
Assay: Activity at recombinant human VAP-1 assessed as hydrogen peroxide generation rate per min/mg using benzylamine as substrate at 200 uM preincubated for 30 mins by Amplex Red assay relative to control
METRIC: fold change (FC)

smiles_record=CN(CCCCCCCCCCCCN=C=S)Cc1ccccc1 tested_target="Amine oxidase [copper-containing] 3 (Homo sapiens) (UniProt Q16853)" meas_value=0.69
smiles_record=NCCCNCCCCNCCCNCc1cccnc1 tested_target="Amine oxidase [copper-containing] 3 (Homo sapiens) (UniProt Q16853)" meas_value=0.85
smiles_record=NCCCNCCCCNCCCNCc1ccc2ccccc2c1 tested_target="Amine oxidase [copper-containing] 3 (Homo sapiens) (UniProt Q16853)" meas_value=1.12
smiles_record=NCCCNCCCCNCCCNCc1ccccc1 tested_target="Amine oxidase [copper-containing] 3 (Homo sapiens) (UniProt Q16853)" meas_value=0.77
smiles_record=NCCCNCCCCNCCCN tested_target="Amine oxidase [copper-containing] 3 (Homo sapiens) (UniProt Q16853)" meas_value=1
smiles_record=NCCCNCCCCNCCCNCc1cccs1 tested_target="Amine oxidase [copper-containing] 3 (Homo sapiens) (UniProt Q16853)" meas_value=1
smiles_record=c1ccc(CNCCCCCCCCCCCCNCc2ccccc2)cc1 tested_target="Amine oxidase [copper-containing] 3 (Homo sapiens) (UniProt Q16853)" meas_value=0.89
